molecular target: HLA-DRB1*0101 (human); experiment: competition binding; conditions: modification not given
Measured log10 of IC50 of individual entries
Assay Endpoint: log10 of IC50 (log10 of the value in nM)

RSWTAADMAAQTTKH [p28] :: 1.83
PRFIAVGYVDDTQFV [p4] :: 2.87
RCWALSFYPAEITLT [p40] :: 1.41
AEITLTWQRDGEDQT [p42] :: 3.13
TSVSRPGRGEPRFIA [p3] :: 2.81
IAVGYVDDTQFVRFD [p5] :: 3.44
KDYIALKEDLRSWTA [p25] :: 1.00
EQLRAYLEGTCVEWL [p32] :: 1.80
ETLQRTDAPKTHMTH [p37] :: 3.30
RGYHQYAYDGKDYIA [p22] :: 3.98
AAVVVPSGQEQRYTC [p47] :: 3.35
AHVAEQLRAYLEGTC [p31] :: 2.80
EGLPKPLTLRWEPSS [p49] :: 2.70
RRYLENGKETLQRTD [p36] :: 2.85
